# System: COLO-792 (Melanoma)
# Measurement Protocol: combination Emax (second highest fraction inhibited in the dose matrix, 72 h); higher = more inhibition; extreme values may be limits of the assay
Reported combination Emax values are given for each entry in this list.
Kindly provide the number alone.

C=CCn1c(=O)c2cnc(Nc3ccc(N4CCN(C)CC4)cc3)nc2n1-c1cccc(C(C)(C)O)n1 [AZD1775] + O=C(c1cc(Cc2n[nH]c(=O)c3ccccc23)ccc1F)N1CCN(C(=O)C2CC2)CC1 [Olaparib] (first compound max 1 µM, partner max 10 µM)    0.284
CN(C)CCCOc1ccc(-c2ccc3ncc4c(c3c2)n(C2CCOCC2)c(=O)n4C)cn1 [AZD0156] + C[C@@H]1COCCN1C2=NC(=NC(=C2)C3(CC3)[S@](=N)(=O)C)C4=C5C=CNC5=NC=C4 [AZD6738] (first compound max 1 µM, 7x7, partner max 10 µM)    0.273
COc1nnc2ccc(N3CCC(c4ccc(OCCN5CCN(C)C(=O)[C@H]5C)cc4)CC3)nn12 [AZD5153] + C[C@@H]1COCCN1C2=NC(=NC(=C2)C3(CC3)[S@](=N)(=O)C)C4=C5C=CNC5=NC=C4 [AZD6738] (first compound max 1 µM, 7x7, partner max 10 µM)    0.72
C[C@@H](c1ccc2nccn2c1)n1nnc2ncc(-c3cnn(C)c3)nc21 [Savolitinib] + CC1(C)CCC(CN2CCN(c3ccc(C(=O)NS(=O)(=O)c4ccc(NCC5CCOCC5)c([N+](=O)[O-])c4)c(Oc4cnc5[nH]ccc5c4)c3)CC2)=C(c2ccc(Cl)cc2)C1 [Venetoclax] (first compound max 1 µM, 7x7, partner max 1 µM)    0.27
CC(=O)Nc1cccc(-n2c(=O)n(C3CC3)c(=O)c3c(Nc4ccc(I)cc4F)n(C)c(=O)c(C)c32)c1 [Trametinib] + Cc1nc(-c2cn3c(n2)-c2ccc(-c4cnn(C(C)(C)C(N)=O)c4)cc2OCC3)n(C(C)C)n1 [Taselisib] (first compound max 1 µM, 7x7, partner max 10 µM)    1

Per the record, C[C@@H](c1ccc2nccn2c1)n1nnc2ncc(-c3cnn(C)c3)nc21 [Savolitinib] + CN(CC[C@H](CSC1=CC=CC=C1)NC2=C(C=C(C=C2)S(=O)(=O)NC(=O)C3=CC=C(C=C3)N4CCC(CC4)[C@H](C5=CC=CC=C5C6=CC=C(C=C6)Cl)O)S(=O)(=O)C(F)(F)F)CCO [AZD4320] (first compound max 1 µM, 7x7, partner max 1 µM) has combination Emax of 0.798

Per the record, CC(=O)c1c(C)c2cnc(Nc3ccc(N4CCNCC4)cn3)nc2n(C2CCCC2)c1=O [Palbociclib] + CC1(C)CCC(CN2CCN(c3ccc(C(=O)NS(=O)(=O)c4ccc(NCC5CCOCC5)c([N+](=O)[O-])c4)c(Oc4cnc5[nH]ccc5c4)c3)CC2)=C(c2ccc(Cl)cc2)C1 [Venetoclax] (first compound max 10 µM, 7x7, partner max 1 µM) has combination Emax of 0.29

Per the record, Cc1cc2ncnn2cc1Nc1ncc2c(n1)n(C1CCOCC1)c(=O)n2C [AZD7648] + CN(C)CCCOc1ccc(-c2ccc3ncc4c(c3c2)n(C2CCOCC2)c(=O)n4C)cn1 [AZD0156] (first compound max 10 µM, 7x7, partner max 1 µM) has combination Emax of 0.351

All figures here come from the supplement of paper PMC11061612.
